target: human LPA1 receptor (Homo sapiens (Human), UniProt Q92633); test: Beta-arrestin recruitment assay to determine IC50 values for human LPAR1; settings: antagonist mode, Tango EDG2-bla U2OS cells, LPA 18:1 500 nM final
Sequence (Q92633 whole entry): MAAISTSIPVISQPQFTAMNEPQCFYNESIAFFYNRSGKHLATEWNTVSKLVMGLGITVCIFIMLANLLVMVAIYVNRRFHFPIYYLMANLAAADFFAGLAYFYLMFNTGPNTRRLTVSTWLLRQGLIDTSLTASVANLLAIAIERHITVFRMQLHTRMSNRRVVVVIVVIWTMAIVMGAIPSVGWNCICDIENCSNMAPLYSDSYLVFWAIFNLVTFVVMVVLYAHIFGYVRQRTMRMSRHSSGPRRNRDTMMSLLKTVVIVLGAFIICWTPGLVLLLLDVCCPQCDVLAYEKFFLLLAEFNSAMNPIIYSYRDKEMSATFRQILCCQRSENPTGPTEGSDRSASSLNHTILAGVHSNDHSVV
property-name: IC50 (nM)

INSERT INTO results (molecule, test_value) VALUES
  ('COc1ccc(NC(=O)C2(c3ccccc3C(C)C)CN(S(N)(=O)=O)C2)c(OC)n1 [Ex 15-7]', 4),
  ('Cc1ccc(NC(=O)C2(c3ccccc3C(C)C)CN(S(=O)(=O)/C=C/C(=O)O)C2)c(OC(F)F)n1 [Ex 13-21]', 14),
  ('Cc1ccc(NC(=O)C2(c3ccccc3C(C)C)CN(Cc3c[nH]nc3C(=O)O)C2)c(OC(F)F)n1 [Ex 11-38]', 270),
  ('Cc1ccc(NC(=O)C2(c3ccccc3C(C)C)CN(CCN(C)C)C2)c(OC(F)F)n1 [Ex 11-78]', 191);
